This collection of values is drawn from patent US12643889B2.

- Assay Comment: Mouse pharmacokinetic assay
- Assay type: in vivo, male ICR mice
- Test Conditions: male, ICR, plasma, oral gavage administration 5 mg/kg
Assay Endpoint: half-life (h)

C[C@H](NC(=O)c1c(C(F)F)nn(C)c1Oc1cccc(CC(F)(F)F)c1)c1ccc(C(=O)O)cc1 [Compound I-6]: 7.22

I. CCc1cc(Oc2c(C(=O)N[C@@H](C)c3ccc(C(=O)O)cc3)c(C(F)F)nn2C)ccc1F [Compound I-2]
II. C[C@H](NC(=O)c1c(C(F)F)nn(C)c1Oc1cccc(C(C)(F)F)c1)c1ccc(C(=O)O)cc1 [Compound I-5]
Problem: Given the two records I and II , choose the one whose half-life value is lower. Respond using the label that marks the chosen record.
Solution: II
